assayExplanation: Stability against liver microsomes
Assay type: in vitro ADME, human
experimentalSetup: 2 μM, 37° C.
metric: half-life (t1/2) with liver microsomes

* CCc1cc(OC)ccc1-c1ccc(CC(NC(=O)[C@H](CC(=O)O)NC(=O)[C@H](CO)NC(=O)[C@@H](NC(=O)C(C)(Cc2ccccc2F)NC(=O)[C@@H](NC(=O)CNC(=O)[C@H](CCC(N)=O)NC(=O)C2(NC(=O)[C@@H](N)Cc3c[nH]cn3)CC2)[C@@H](C)O)[C@@H](C)O)C(=O)NC(Cc2ccc(-c3ccccc3C)cc2)C(N)=O)cc1 (single isomer, unassigned) [compound 33] | (5) h
* CCc1cc(OC)ccc1-c1ccc(CC(NC(=O)[C@H](CC(=O)O)NC(=O)[C@H](CO)NC(=O)[C@@H](NC(=O)C(C)(Cc2ccccc2F)NC(=O)[C@@H](NC(=O)CNC(=O)[C@H](CCC(N)=O)NC(=O)C(C)(C)NC(=O)[C@@H](N)Cc2c[nH]cn2)[C@@H](C)O)[C@@H](C)O)C(=O)NC(Cc2ccc(-c3ccccc3C)nc2)C(N)=O)cc1 (single isomer, unassigned) [compound 30] | (5) h
* CCc1cc(OC)ccc1-c1ccc(CC(NC(=O)[C@H](CC(=O)O)NC(=O)[C@H](CO)NC(=O)[C@@H](NC(=O)C(C)(Cc2ccccc2F)NC(=O)[C@@H](NC(=O)CNC(=O)[C@H](CCC(N)=O)NC(=O)C(C)(C)NC(=O)[C@@H](N)Cc2c[nH]cn2)[C@@H](C)O)[C@@H](C)O)C(=O)NC(Cc2ccc(-c3ccccc3C)cc2)C(N)=O)cc1 (single isomer, unassigned) [compound 29] | (5) h

---

Below, each entry is listed with its recorded % degradation in 24 h when incubated with DPP-IV enzyme.
testTarget: DPP IV (Homo sapiens)
Sequence (P27487 whole entry, species assumed): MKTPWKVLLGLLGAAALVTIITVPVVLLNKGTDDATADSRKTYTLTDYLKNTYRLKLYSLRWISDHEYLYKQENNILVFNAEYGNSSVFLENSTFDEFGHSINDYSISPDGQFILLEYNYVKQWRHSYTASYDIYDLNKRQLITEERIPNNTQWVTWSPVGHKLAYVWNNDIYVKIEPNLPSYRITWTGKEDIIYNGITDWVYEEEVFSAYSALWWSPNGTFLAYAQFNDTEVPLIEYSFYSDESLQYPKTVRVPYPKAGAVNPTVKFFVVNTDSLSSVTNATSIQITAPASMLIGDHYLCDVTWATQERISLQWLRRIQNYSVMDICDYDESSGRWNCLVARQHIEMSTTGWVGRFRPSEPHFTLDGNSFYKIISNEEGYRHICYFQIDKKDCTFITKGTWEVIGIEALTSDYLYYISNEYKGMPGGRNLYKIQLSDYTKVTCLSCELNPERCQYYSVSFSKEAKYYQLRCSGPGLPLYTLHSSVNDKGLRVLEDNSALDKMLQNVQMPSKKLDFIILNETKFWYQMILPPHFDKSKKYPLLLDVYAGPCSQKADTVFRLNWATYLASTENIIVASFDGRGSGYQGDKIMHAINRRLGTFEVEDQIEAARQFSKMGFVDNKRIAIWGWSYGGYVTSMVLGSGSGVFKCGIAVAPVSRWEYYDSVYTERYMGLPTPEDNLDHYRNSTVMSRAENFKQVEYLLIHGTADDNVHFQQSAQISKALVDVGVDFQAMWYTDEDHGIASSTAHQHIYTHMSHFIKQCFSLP
assayExplanation: Stability against DPP IV enzyme
Type: in vitro ADME
experimentalSetup: 2 μM, 37° C., 24 h
metric: % degradation in 24 h when incubated with DPP-IV enzyme (%)

- CCc1cc(OC)ccc1-c1ccc(CC(NC(=O)[C@H](CC(=O)O)NC(=O)[C@H](CO)NC(=O)[C@@H](NC(=O)[C@H](Cc2ccccc2)NC(=O)[C@@H](NC(=O)CNC(=O)[C@H](CCC(N)=O)NC(=O)[C@H](C)NC(=O)[C@@H](N)Cc2c[nH]cn2)[C@@H](C)O)[C@@H](C)O)C(=O)NC(Cc2ccc(-c3ccccc3C(F)(F)F)cc2)C(N)=O)cc1 (single isomer, unassigned): 72
- CCc1cc(OC)ccc1-c1ccc(CC(NC(=O)[C@H](CC(=O)O)NC(=O)[C@H](CO)NC(=O)[C@@H](NC(=O)[C@H](Cc2ccccc2)NC(=O)[C@@H](NC(=O)CNC(=O)[C@H](CCC(N)=O)NC(=O)[C@H](CO)NC(=O)[C@@H](N)Cc2c[nH]cn2)[C@@H](C)O)[C@@H](C)O)C(=O)NC(Cc2ccc(-c3ccccc3F)cc2)C(N)=O)cc1 (single isomer, unassigned): 77
- CCc1cc(OC)ccc1-c1ccc(CC(NC(=O)[C@H](CC(=O)O)NC(=O)[C@H](CO)NC(=O)[C@@H](NC(=O)[C@H](Cc2ccccc2)NC(=O)[C@@H](NC(=O)CNC(=O)[C@H](CCC(N)=O)NC(=O)C2(NC(=O)[C@@H](N)Cc3c[nH]cn3)CC2)[C@@H](C)O)[C@@H](C)O)C(=O)NC(Cc2ccc(-c3ccccc3F)cc2)C(N)=O)cc1 (single isomer, unassigned): 00

---

testTarget: DPP IV (Homo sapiens)
assayExplanation: Stability against DPP IV enzyme
Assay type: in vitro ADME
experimentalSetup: 2 μM, 37° C., 24 h
metric: % degradation in 24 h when incubated with DPP-IV enzyme (%)

• CCc1cc(OC)ccc1-c1ccc(CC(NC(=O)[C@H](CC(=O)O)NC(=O)[C@H](CO)NC(=O)[C@@H](NC(=O)C(C)(Cc2ccccc2F)NC(=O)[C@@H](NC(=O)CNC(=O)[C@H](CCC(N)=O)NC(=O)[C@H](CO)NC(=O)[C@@H](N)Cc2c[nH]cn2)[C@@H](C)O)[C@@H](C)O)C(=O)NC(Cc2ccc(-c3ccccc3C)cc2)C(N)=O)cc1 (single isomer, unassigned) [compound 21] = 76
• CCc1cc(OC)ccc1-c1ccc(CC(NC(=O)[C@H](CC(=O)O)NC(=O)[C@H](CO)NC(=O)[C@@H](NC(=O)C(C)(Cc2ccccc2F)NC(=O)[C@@H](NC(=O)CNC(=O)[C@H](CCC(N)=O)NC(=O)C2(NC(=O)[C@@H](N)Cc3c[nH]cn3)CC2)[C@@H](C)O)[C@@H](C)O)C(=O)NC(Cc2ccc(-c3ccccc3C)nc2)C(N)=O)cc1 (single isomer, unassigned) [compound 34] = 00

---

assayExplanation: Stability in simulated gastric fluid
Assay type: in vitro ADME
experimentalSetup: simulated gi fluid; 2 μM, 37° C., pH 1.5, pepsin; read-out: half-life (t1/2) in simulated gastric fluid
Below, each entry is listed with its recorded half-life.
metric: half-life

- CCc1cc(OC)ccc1-c1ccc(CC(NC(=O)[C@H](CC(=O)O)NC(=O)[C@H](CO)NC(=O)[C@@H](NC(=O)[C@H](Cc2ccccc2)NC(=O)[C@@H](NC(=O)CNC(=O)[C@H](CCC(N)=O)NC(=O)C(C)(C)NC(=O)[C@@H](N)Cc2c[nH]cn2)[C@@H](C)O)[C@@H](C)O)C(=O)NC(Cc2ccc(-c3ccccc3C(F)(F)F)cc2)C(N)=O)cc1 (single isomer, unassigned): 4 h
- CCc1cc(OC)ccc1-c1ccc(CC(NC(=O)[C@H](CC(=O)O)NC(=O)[C@H](CO)NC(=O)[C@@H](NC(=O)[C@H](Cc2ccccc2)NC(=O)[C@@H](NC(=O)CNC(=O)[C@H](CCC(N)=O)NC(=O)C2(NC(=O)[C@@H](N)Cc3c[nH]cn3)CC2)[C@@H](C)O)[C@@H](C)O)C(=O)NC(Cc2ccc(-c3ccccc3C)cc2)C(N)=O)cc1 (single isomer, unassigned): 4 h
- CCc1cc(OC)ccc1-c1ccc(CC(NC(=O)[C@H](CC(=O)O)NC(=O)[C@H](CO)NC(=O)[C@@H](NC(=O)C(C)(Cc2ccccc2F)NC(=O)[C@@H](NC(=O)CNC(=O)[C@H](CCC(N)=O)NC(=O)C(C)(C)NC(=O)[C@@H](N)Cc2c[nH]cn2)[C@@H](C)O)[C@@H](C)O)C(=O)NC(Cc2ccc(-c3ccccc3C)nc2)C(N)=O)cc1 (single isomer, unassigned): > 24 h
- CCc1cc(OC)ccc1-c1ccc(CC(NC(=O)[C@H](CC(=O)O)NC(=O)[C@H](CO)NC(=O)[C@@H](NC(=O)C(C)(Cc2ccccc2F)NC(=O)[C@@H](NC(=O)CNC(=O)[C@H](CCC(N)=O)NC(=O)C(C)(C)NC(=O)[C@@H](N)Cc2c[nH]cn2)[C@@H](C)O)[C@@H](C)O)C(=O)NC(Cc2ccc(-c3ccccc3F)cc2)C(N)=O)cc1 (single isomer, unassigned): > 24 h
- CCc1cc(OC)ccc1-c1ccc(CC(NC(=O)[C@H](CC(=O)O)NC(=O)[C@H](CO)NC(=O)[C@@H](NC(=O)C(C)(Cc2ccccc2F)NC(=O)[C@@H](NC(=O)CNC(=O)[C@H](CCC(N)=O)NC(=O)C(C)(C)NC(=O)[C@@H](N)Cc2c[nH]cn2)[C@@H](C)O)[C@@H](C)O)C(=O)NC(Cc2ccc(-c3ccccc3C)cc2)C(N)=O)cc1 (single isomer, unassigned): > 24 h
- CCc1cc(OC)ccc1-c1ccc(CC(NC(=O)[C@H](CC(=O)O)NC(=O)[C@H](CO)NC(=O)[C@@H](NC(=O)C(C)(Cc2ccccc2F)NC(=O)[C@@H](NC(=O)CNC(=O)[C@H](CCC(N)=O)NC(=O)C2(NC(=O)[C@@H](N)Cc3c[nH]cn3)CC2)[C@@H](C)O)[C@@H](C)O)C(=O)NC(Cc2ccc(-c3ccccc3C(F)(F)F)cc2)C(N)=O)cc1 (single isomer, unassigned): > 24 h
- CCc1cc(OC)ccc1-c1ccc(CC(NC(=O)[C@H](CC(=O)O)NC(=O)[C@H](CO)NC(=O)[C@@H](NC(=O)C(C)(Cc2ccccc2F)NC(=O)[C@@H](NC(=O)CNC(=O)[C@H](CCC(N)=O)NC(=O)C2(NC(=O)[C@@H](N)Cc3c[nH]cn3)CC2)[C@@H](C)O)[C@@H](C)O)C(=O)NC(Cc2ccc(-c3ccccc3C)cc2)C(N)=O)cc1 (single isomer, unassigned): > 24 h
- CCc1cc(OC)ccc1-c1ccc(CC(NC(=O)[C@H](CC(=O)O)NC(=O)[C@H](CO)NC(=O)[C@@H](NC(=O)[C@H](Cc2ccccc2)NC(=O)[C@@H](NC(=O)CNC(=O)[C@H](CCC(N)=O)NC(=O)C2(NC(=O)[C@@H](N)Cc3c[nH]cn3)CC2)[C@@H](C)O)[C@@H](C)O)C(=O)NC(Cc2ccc(-c3ccccc3C(F)(F)F)cc2)C(N)=O)cc1 (single isomer, unassigned): 4 h
- CCc1cc(OC)ccc1-c1ccc(CC(NC(=O)[C@H](CC(=O)O)NC(=O)[C@H](CO)NC(=O)[C@@H](NC(=O)[C@H](Cc2ccccc2)NC(=O)[C@@H](NC(=O)CNC(=O)[C@H](CCC(N)=O)NC(=O)C2(NC(=O)[C@@H](N)Cc3c[nH]cn3)CC2)[C@@H](C)O)[C@@H](C)O)C(=O)NC(Cc2ccc(-c3ccccc3C)nc2)C(N)=O)cc1 (single isomer, unassigned): 4 h
- CCc1cc(OC)ccc1-c1ccc(CC(NC(=O)[C@H](CC(=O)O)NC(=O)[C@H](CO)NC(=O)[C@@H](NC(=O)C(C)(Cc2ccccc2F)NC(=O)[C@@H](NC(=O)CNC(=O)[C@H](CCC(N)=O)NC(=O)C2(NC(=O)[C@@H](N)Cc3c[nH]cn3)CC2)[C@@H](C)O)[C@@H](C)O)C(=O)NC(Cc2ccc(-c3ccccc3C)nc2)C(N)=O)cc1 (single isomer, unassigned): > 24 h
